- system_under_test: Platelet glycoprotein VI (Homo sapiens)
- measurement_notes: Modulation of GP6 in human platelets assessed as reduction in convulxin-induced P-selectin expression preincubated for 20 mins followed by convulxin stimulation and measured after 1 min by Western blot analysis
pIC50: −log10 of the molar value.
property: pIC50

1. Cc1cccc(Nc2nc(N[C@@H]3CCCC[C@@H]3N)ncc2C(N)=O)c1 = 7.32

---

- measurement_notes: Modulation of GP6 in porcine platelet-rich plasma assessed as reduction in convulxin-induced platelet aggregation
- Assay type: tissue-based
- particulars: Sus scrofa
property: IC50 (nM)

1) Cc1cccc(Nc2nc(N[C@@H]3CCCC[C@@H]3N)ncc2C(N)=O)c1 = 350

---

- system_under_test: Platelet glycoprotein VI (Homo sapiens)
- measurement_notes: Binding affinity to human platelet lysate GP6 at 0.1 uM by surface plasmon resonance analysis
- Assay type: subcellular
property: Kd (nM)

1. NCCCC(=O)O = 41.1

---

- measurement_notes: Inhibition of ADP-induced platelet aggregation in human platelet suspension preincubated for 3 mins followed by […] and measured after 6 mins by lumi-aggregometry
- Format: functional, tissue-based
pIC50: −log10 of the molar value.
property: pIC50

1) CC(C)=CCC/C(C)=C/C=C/C(C)=C/C=C/C(C)=C/C=C/C=C(C)/C=C/C=C(C)/C=C/C=C(\C)CCC=C(C)C [LYCOPENE] = 5.21

---

- measurement_notes: Inhibition of arachidonic acid-induced platelet aggregation in rabbit platelet suspension preincubated for 10 mins followed by AA stimulation by turbidimetric method
- Assay type: functional, tissue-based
- particulars: Oryctolagus cuniculus
pIC50: −log10 of the molar value.
property: pIC50

1. C=C1C(=O)[C@@]23[C@H](O)C[C@@H]4C(C)(C)C(=O)CC[C@@]4(C)[C@@H]2CC[C@@H]1[C@H]3O [GLAUCOCALYXIN A] = 4.85

---

- system_under_test: Platelet glycoprotein VI (Homo sapiens, UniProt Q9HCN6)
- Sequence (Q9HCN6 whole entry): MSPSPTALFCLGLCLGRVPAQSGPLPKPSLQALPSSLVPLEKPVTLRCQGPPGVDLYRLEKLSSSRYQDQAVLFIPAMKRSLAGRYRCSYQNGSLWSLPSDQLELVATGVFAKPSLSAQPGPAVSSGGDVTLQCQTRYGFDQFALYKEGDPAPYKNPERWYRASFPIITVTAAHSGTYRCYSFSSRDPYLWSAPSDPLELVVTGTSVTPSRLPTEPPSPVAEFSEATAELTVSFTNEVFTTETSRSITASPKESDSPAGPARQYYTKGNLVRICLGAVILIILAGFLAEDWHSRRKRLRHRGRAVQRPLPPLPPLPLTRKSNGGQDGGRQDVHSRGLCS
- measurement_notes: Binding affinity to human platelet lysate GP6 at 100 uM by surface plasmon resonance analysis
- Assay type: subcellular
property: Kd (µM)

1. C=CCc1ccc(O)c(-c2ccc(O)c(CC=C)c2)c1 = 289

---

- system_under_test: Thromboxane A2 receptor (Homo sapiens)
- measurement_notes: Modulation of TxA2 receptor in human platelet suspension assessed as lowest concentration that reduced U46619-induced platelet aggregation preincubated for 5 min followed by U46619 stimulation by light transmission aggregometry
- Format: tissue-based
- particulars: filed as modulator
Reported MEC values follow for various compounds
property: MEC (µM)

1. CCCCc1nc(Cl)c(CO)n1Cc1ccc(-c2ccccc2-c2nnn[nH]2)cc1 = 0.5
2. CCCCC(=O)N(Cc1ccc(-c2ccccc2-c2nnn[nH]2)cc1)[C@H](C(=O)O)C(C)C = 50
3. CCCCC1=NC2(CCCC2)C(=O)N1Cc1ccc(-c2ccccc2-c2nnn[nH]2)cc1 = 0.5
4. CCCc1nc2c(C)cc(-c3nc4ccccc4n3C)cc2n1Cc1ccc(-c2ccccc2C(=O)O)cc1 = 5

---

- measurement_notes: Antagonist activity at GP6 in human platelet assessed as reduction in CRP-induced platelet-aggregation preincubated for 60 secs followed by […] by light transmission aggregometry
pIC50: −log10 of the molar value.
property: pIC50

1) CN(C)CCCSc1ccccc1NC(=O)/C=C/c1ccccc1 = 4.46

---

- system_under_test: Platelet glycoprotein VI (Homo sapiens, UniProt Q9HCN6)
- measurement_notes: Binding affinity to recombinant GP6 (unknown origin) at protein to compound ratio of 1 : 1 to 1 : 10 by 2D 15N-1H TROSY-HSQC NMR spectroscopy
property: Kd (µM)

1) H-YSDTDWLYFSTS-OH = 57
